target of assay: human recombinant BACE1 (Homo sapiens (Human), UniProt P56817)
Sequence (P56817 46-501): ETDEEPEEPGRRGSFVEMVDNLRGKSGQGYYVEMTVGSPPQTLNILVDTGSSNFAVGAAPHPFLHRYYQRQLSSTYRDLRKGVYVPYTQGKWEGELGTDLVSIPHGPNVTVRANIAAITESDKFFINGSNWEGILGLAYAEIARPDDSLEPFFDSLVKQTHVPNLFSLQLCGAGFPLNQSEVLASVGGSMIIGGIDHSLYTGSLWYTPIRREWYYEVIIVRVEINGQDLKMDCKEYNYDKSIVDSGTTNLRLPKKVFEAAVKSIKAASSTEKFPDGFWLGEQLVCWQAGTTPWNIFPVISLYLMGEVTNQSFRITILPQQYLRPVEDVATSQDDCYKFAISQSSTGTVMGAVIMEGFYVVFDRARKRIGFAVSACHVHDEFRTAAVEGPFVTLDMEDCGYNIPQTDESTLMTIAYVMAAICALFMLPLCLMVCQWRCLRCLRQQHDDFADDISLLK
test method notes: In vitro enzymatic BACE1 FRET assay
Format: biochemical
experimental conditions: BACE1 FRET enzyme assay; read-out: IC50 IP (μM) BACE1 enzyme
Method: These recombinant proteins were further purified using Ni-NTA affinity chromatography (Qiagen). […] This assay is effectively started by the addition of FRET substrate (50 nM) and the combination is incubated for one hour. The FRET assay is terminated by addition of Tris buffer, which raises the pH to neutrality, and the fluorescence is determined. […] Proteolytic cleavage of the FRET substrate releases quenching of fluorescence (excitation 488 nm and emission 590 nm).
endpoint name: IC50 (µM)

N#Cc1cnc2c(Nc3ccc(F)c([C@@]4(CF)N=C(N)S[C@@]5(CO)C[C@H]54)c3)nccc2c1: 0.00225

1: Cc1cc(C#N)cnc1C(=O)Nc1ccc(F)c([C@@]2(CF)N=C(N)S[C@@]3(CO)C[C@H]32)c1
2: C#CCOc1cnc(C(=O)Nc2cc(F)c(F)c([C@@]3(CF)N=C(N)S[C@@]4(CO)C[C@H]43)c2)cn1
3: COC[C@]12C[C@H]1[C@@](CF)(c1cc(NC(=O)c3ccc(Cl)cn3)ccc1F)N=C(N)S2
## Input Rank entries according to their IC50, from the largest number down. # list labels per requested ordering
## Output 3, 1, 2

---

System: Aβ40 in conditioned medium of cells stably expressing Amyloid Precursor Protein (APP)
test method notes: In vitro BACE-1 cell-based assay (Aβ40 sandwich ELISA)
experimental conditions: BACE1 cell-based assay; read-out: IC50 IP (μM) BACE1 cell
endpoint name: IC50 (µM)

The cases that follow already have their IC50 on record.
CCOC(=O)[C@]12C[C@H]1[C@@](C)(c1cc(NC(=O)c3ccc(Cl)cn3)cc(F)c1F)N=C(N)S2: 0.0232
COC(=O)[C@]12C[C@H]1[C@@](C)(c1cc(NC(=O)c3ccc(Cl)cn3)cnc1F)N=C(N)S2: 0.0659
NC1=N[C@](CF)(c2cc(Nc3nccc4cc(Cl)cnc34)ccc2F)[C@@H]2C[C@]2(CO)S1: 0.00427
CC(C)Oc1cnc2c(Nc3cc(F)c(F)c([C@@]4(CF)N=C(N)S[C@H]5C[C@H]54)c3)nccc2n1: 4.65
COC[C@]12C[C@H]1[C@@](C)(c1cc(Nc3nccc4cc(Cl)cnc34)cc(F)c1F)N=C(N)S2: 0.0191

A: C#CCOc1cnc2c(Nc3ccc(F)c([C@@]4(CF)N=C(N)S[C@@]5(CO)C[C@H]54)c3)nccc2c1
B: COC[C@@]12C[C@@H]1[C@@](CF)(c1cc(Nc3nccc4cc(C#N)cnc34)cc(F)c1F)N=C(N)S2
## Input // pick min by IC50: A , B I would appreciate it if you answered with the label of your choice.
## Output A

---

target of assay: human recombinant BACE2 (Homo sapiens (Human), UniProt Q9Y5Z0)
Sequence (Q9Y5Z0 63-518): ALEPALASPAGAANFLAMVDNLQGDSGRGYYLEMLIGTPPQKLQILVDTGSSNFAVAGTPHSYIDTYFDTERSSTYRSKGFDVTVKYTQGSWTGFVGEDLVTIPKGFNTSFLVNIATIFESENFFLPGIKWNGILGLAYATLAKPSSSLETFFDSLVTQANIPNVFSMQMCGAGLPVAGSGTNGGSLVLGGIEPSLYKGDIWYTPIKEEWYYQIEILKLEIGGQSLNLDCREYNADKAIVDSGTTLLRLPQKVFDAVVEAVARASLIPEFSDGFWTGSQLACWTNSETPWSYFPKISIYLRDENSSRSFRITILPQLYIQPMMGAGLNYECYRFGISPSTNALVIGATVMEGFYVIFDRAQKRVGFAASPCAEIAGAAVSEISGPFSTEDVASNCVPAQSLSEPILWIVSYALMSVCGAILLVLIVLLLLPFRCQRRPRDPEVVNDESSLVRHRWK
test method notes: In vitro enzymatic BACE2 FRET assay
Assay type: biochemical
experimental conditions: read-out: IC50 IP (μM) BACE2 enzyme
endpoint name: IC50 (µM)

C#CCOc1cnc2c(Nc3ccc(F)c([C@@]4(CF)N=C(N)S[C@@]5(c6cnco6)C[C@@H]45)c3)nccc2n1: 0.00329
C#CCOc1cnc(C(=O)Nc2ccc(F)c([C@@]3(C)N=C(N)S[C@@]4(C(=O)N5CCOCC5)C[C@H]43)c2)cn1: 0.00516
C#CCOc1cnc2c(Nc3cnc(F)c([C@@]4(C)N=C(N)S[C@@]5(C(F)F)C[C@@H]45)c3)nccc2n1: 0.0192

I: C#C[C@H](C)Oc1cnc(C(=O)Nc2ccc(F)c([C@@]3(C)N=C(N)S[C@@]4(C(=O)NC(C)(C)CF)C[C@H]43)c2)cn1
II: C[C@]1(c2cc(Nc3nccc4nc(OCc5ncco5)cnc34)cc(F)c2F)N=C(N)S[C@@]2(S(C)(=O)=O)C[C@H]21
## Input Lowest IC50? choose I or II Your answer should be the label of the entry you select.
## Output II
(II: 0.0115 µM, I: 0.073 µM)
